Procedure summary: Drug concentration in Sprague-Dawley rat brain at 10 mg/kg, po measured after 0.5 hrs
Assay type: ADME, organism-based
Conditions: read-out: Ct
Measured concentration at 0.5 h of individual entries

{"columns": ["Smiles text", "concentration at 0.5 h"],
 "data": [
  ["FC(F)Oc1cc(-n2cc(COc3ncccn3)nn2)ccc1Cl", "1920 ng/g"],
  ["COCc1ccnc(OCc2cn(-c3ccc(F)c(OC(F)F)c3)nn2)n1", "340 ng/g"]
]}

---

Procedure summary: Metabolic stability in human liver microsomes assessed as extraction ratio
Assay type: ADME, Microsome
Conditions: read-out: ERH
Reported values of hepatic extraction ratio for individual entries

{"columns": ["Smiles text", "hepatic extraction ratio"],
 "data": [
  ["Cc1cnc(OCc2cn(-c3ccc(F)c(OC(F)F)c3)nn2)nc1", 0.57],
  ["COCc1ccnc(OCc2cn(-c3ccc(F)c(OC(F)F)c3)nn2)n1", 0.47],
  ["Cc1cnc(OCc2cn(-c3ccc(Cl)c(OC(F)F)c3)nn2)nc1", 0.83],
  ["C[C@@H](Oc1ncccn1)c1cn(-c2ccc(Cl)c(OC(F)F)c2)nn1", 0.59]
]}
